All figures here come from the supplement of paper PMC6992640.

Items are presented alongside their recorded cell viability of combination.
test system: HCI01 (cells of a triple-negative basal-like breast cancer xenograft); assay: cell viability of combination (% of vehicle); higher = less cytotoxic; settings: 1 µM; 72 h; partner dose: 10 nM
Form field (numeric): enter value without unit.

The compound listed as COc1cc2c(Nc3ccc(Br)cc3F)ncnc2cc1OCC1CCN(C)CC1 [Vandetanib (ZD6474)] + CC(C)C[C@H](NC(=O)[C@H](CCc1ccccc1)NC(=O)CN1CCOCC1)C(=O)N[C@@H](Cc1ccccc1)C(=O)N[C@@H](CC(C)C)C(=O)[C@@]1(C)CO1 shows cell viability of combination equal to 64.1

---

system: HCI09 (cells of a triple-negative luminal androgen receptor type breast cancer xenograft); assay: cell viability (% of vehicle); higher = less cytotoxic; conditions: 10 µM; 72 h
// boundary case: cell viability equal to 100 maps to N; strictly smaller maps to Y

Look over these answered cases.
CCN(CC)C(=S)SSC(=S)N(CC)CC; Y
COC(=O)C1=C(C#N)NC(C)=C(C(=O)OC(C)C)C1c1cccc([N+](=O)[O-])c1 (stereo unspecified); Y
Nc1nc(=O)c2c([nH]1)NCC(CNc1ccc(C(=O)NC(CCC(=O)[O-])C(=O)[O-])cc1)N2C=O.O.O.O.O.O.[Ca+2] (stereo unspecified); N

Kindly review the next compound as well.
Q: I'd appreciate it if you could check whether CCc1ccc(CCOc2ccc(CC3SC(=O)NC3=O)cc2)nc1 (stereo unspecified) has cell viability smaller than 100.
A: N

---

system: HCI11 (cells of an ER-positive luminal breast cancer xenograft); experiment: cell viability (% of vehicle); higher = less cytotoxic; settings: 10 µM; 72 h
RECORDED METRIC: cell viability
// return just the number, without any unit appended

Examples with answers:
CCCNC1CCc2nc(N)sc2C1 (centres undefined) [Pramipexole]; 110
Nc1nc(Cl)nc2c1ncn2C1CC(O)C(CO)O1 (centres undefined); 104
CO[C@H]1/C=C/O[C@@]2(C)Oc3c(C)c(O)c4c(c3C2=O)C2=NC3(CCN(CC(C)C)CC3)NC2=C(NC(=O)/C(C)=C\C=C\[C@H](C)[C@H](O)[C@@H](C)[C@@H](O)[C@@H](C)[C@H](OC(C)=O)[C@@H]1C)C4=O; 83.2

Please find the next compound below.
Summary for this compound, CC(S)C(=O)NCC(=O)O (centres undefined) : cell viability is 107

---

test system: UCD52 (cells of a triple-negative basal-like breast cancer xenograft); experiment: cell viability (% of vehicle); higher = less cytotoxic; conditions: 10 µM; 72 h
RECORDED METRIC: cell viability

# example entries with known answers
CCC(C)C(=O)OC1CC(C)C=C2C=CC(C)C(CCC3CC(O)CC(=O)O3)C21 (centres undefined); 50.7
CN1CCN(c2ccc(C(=O)/N=c3\[nH][nH]c4ccc(Cc5cc(F)cc(F)c5)cc34)c(NC3CCOCC3)c2)CC1; 37
CC(CCC(=O)O)C1CCC2C3CCC4CC(O)CCC4(C)C3CC(O)C12C (centres undefined); 112
CCCCCCOC(=O)N=C(N)c1ccc(NCc2nc3cc(C(=O)N(CCC(=O)OCC)c4ccccn4)ccc3n2C)cc1.CS(=O)(=O)O [Dabigatran etexilate mesylate]; 98.4
O=C(O)c1ccc2ccccc2c1O.OCc1cc(C(O)CNCCCCCCOCCCCc2ccccc2)ccc1O (centres undefined) [Salmeterol xinafoate]; 62.1

Reported cell viability of CC(C)C(N)C(=O)OCC(CO)OCn1cnc2c(=O)nc(N)[nH]c21.Cl (centres undefined) [Valganciclovir HCl] : 120

// recorded cell viability for CC(=O)[N-]S(=O)(=O)c1ccc(N)cc1.[Na+] [Sulfacetamide Sodium] : 72.9

Input CC12C=CC(=O)C=C1CCC1C3CC(O)C(O)(C(=O)CO)C3(C)CC(O)C12F (centres undefined) . Output cell viability: 121

// cell viability value for CC12CCC3c4ccc(O)cc4CCC3C1CC(O)C2O (centres undefined) : 105

get_value(item= COC(=O)C(c1ccccc1Cl)N1CCc2sccc2C1.O=S(=O)(O)O (centres undefined) , readout=cell viability) returns 76.7

Recorded result, COc1ccc2c(O[C@H]3CC4C(=O)N(C)CCCC/C=C\[C@H]5C[C@@]5(C(=O)NS(=O)(=O)C5CC5)NC(=O)[C@@H]4C3)cc(-c3nc(C(C)C)cs3)nc2c1C (some centres undefined) , cell viability: 32.6

Per the record, Cl.O=C(Nc1ccccc1)OCC(CN1CCCCC1)OC(=O)Nc1ccccc1 (centres undefined) [Diperodon HCl] has cell viability of 84.2

---

cell viability values for the molecules below.
test system: WHIM2 (cells of a triple-negative basal-like breast cancer xenograft); experiment: cell viability (% of vehicle); higher = less cytotoxic; settings: 1 µM; 72 h
API doc: respond with a numeric literal and nothing else, no unit.

CO[C@@]12[C@H](COC(N)=O)C3=C(C(=O)C(C)=C(N)C3=O)N1C[C@@H]1N[C@@H]12; 75.4
Cc1cccc(CN2CCN(C(c3ccccc3)c3ccc(Cl)cc3)CC2)c1.Cl.Cl (configuration not stated) [Meclizine 2HCl]; 98
COc1cc(Nc2c(C#N)cnc3cc(OCCCN4CCN(C)CC4)c(OC)cc23)c(Cl)cc1Cl [Bosutinib (SKI-606)]; 55.4
CCN(CC)CCNC(=O)c1c(C)[nH]c(C=C2C(=O)Nc3ccc(F)cc32)c1C; 66
Clc1ccc(COC(Cn2ccnc2)c2ccc(Cl)cc2Cl)cc1.O=[N+]([O-])O (configuration not stated) [Econazole nitrate]; 115
O=C1C=CC=CC1=C1NC(=C2C=CC=CC2=O)N(c2ccc(C(=O)O)cc2)N1; 92.2

Just so you know, measured cell viability for CCC(NC(=O)C(C)NC)C(=O)N1CC(O)CC1Cc1c(-c2[nH]c3cc(F)ccc3c2CC2CC(O)CN2C(=O)C(CC)NC(=O)C(C)NC)[nH]c2cc(F)ccc12 (configuration not stated) came out at 36.3

---

tested on: HCI01; assay: cell viability (% of vehicle); higher = less cytotoxic; conditions: 1 µM; 72 h
Listing of entries alongside the reported cell viability.
Provide a numeric answer; units are not to be included.

Known cell viability results, listed for orientation:
Cl.Nc1ccn(C2OC(CO)C(O)C2O)c(=O)n1 (stereo not drawn) [Cytarabine hydrochloride]; 71.5
Clc1ccc(CSC(Cn2ccnc2)c2ccc(Cl)cc2Cl)cc1.O=[N+]([O-])O (stereo not drawn) [Sulconazole Nitrate]; 95.2
C=C1C(=CC=C2CCCC3(C)C2CCC3C(C)CCCC(C)C)CC(O)CC1O (stereo not drawn); 72.3
CC(NCCCc1cccc(C(F)(F)F)c1)c1cccc2ccccc12.Cl (stereo not drawn) [Cinacalcet HCl]; 94.5

Reported cell viability ( CCCCCCCCCCCC1=C(O)C(=O)C=C(O)C1=O ) = 92.8

cell viability measured on C#Cc1cccc(Nc2ncnc3cc(OCCOC)c(OCCOC)cc23)c1 = 62.6

For record Cn1cnc2c(F)c(Nc3ccc(Br)cc3F)c(C(=O)NOCCO)cc21 the listed cell viability is 71.6

Noted for CC(C)CC(NC(=O)C(CCc1ccccc1)NC(=O)CN1CCOCC1)C(=O)NC(Cc1ccccc1)C(=O)NC(CC(C)C)C(=O)C1(C)CO1 (stereo not drawn) : its cell viability reads 29.2

---

system: WHIM2; experiment: cell viability (% of vehicle); higher = less cytotoxic; settings: 10 µM; 72 h
// reported cell viability for each item listed
Write the value as a bare number.

Reported cell viability for Cc1cncc(CN2CCC(=C3c4ccc(Cl)cc4CCc4cccnc43)CC2)c1.O=C(O)C=CC(=O)O [Rupatadine Fumarate] was 78

Entry Cl.O=C(CCCN1CCC(O)(c2ccc(Cl)cc2)CC1)c1ccc(F)cc1 [Haloperidol hydrochloride] ; cell viability = 114

So for CCC1(O)CC2CN(CCc3c([nH]c4ccccc34)C(C(=O)OC)(c3cc4c(cc3OC)N(C)C3C(O)(C(=O)OC)C(OC(C)=O)C5(CC)C=CCN6CCC43C65)C2)C1.O=S(=O)(O)O (stereo not drawn) [Vinblastine sulfate] , the logged cell viability turned out to be 76.8

---

test system: WHIM2; test: cell viability (% of vehicle); higher = less cytotoxic; conditions: 10 µM; 72 h
RECORDED METRIC: cell viability
Quick one: just the number, no unit, thanks!

COC(=O)C1=COC(O)C2C(CO)=CCC12 (centres undefined); 124
CC(C)CC(NC(=O)C(CCc1ccccc1)NC(=O)CN1CCOCC1)C(=O)NC(Cc1ccccc1)C(=O)NC(CC(C)C)C(=O)C1(C)CO1 (centres undefined); 26.4
CN=C(NC#N)NCCSCc1nc[nH]c1C; 87.8
CC(=O)Nc1cccc(-n2c(=O)n(C3CC3)c(=O)c3c(Nc4ccc(I)cc4F)n(C)c(=O)c(C)c32)c1; 74.2
O=C(NCC(O)CO)c1ccncc1Nc1ccc(I)cc1F (centres undefined); 41.9

Per the record, N#CC(c1ccc(Cl)cc1)c1c(Cl)cc(-n2ncc(=O)[nH]c2=O)cc1Cl (centres undefined) has cell viability of 115

What the record says about Cc1ccc(-n2[nH]c(C)c(NN=C3C=CC=C(c4cccc(C(=O)O)c4)C3=O)c2=O)cc1C.NCCO.NCCO : cell viability is 36.8

Consider COc1cc2ncnc(Nc3ccc(F)c(Cl)c3)c2cc1NC(=O)C=CCN1CCCCC1 . Its measured cell viability is 43.9

The measured cell viability associated with Br.Br.Br.Br.Br.Cc1cc(N2CCN(C3CNC(C(=O)N4CCSC4)C3)CC2)n(-c2ccccc2)n1.Cc1cc(N2CCN(C3CNC(C(=O)N4CCSC4)C3)CC2)n(-c2ccccc2)n1 (centres undefined) [Teneligliptin hydrobromide] reads 99

Entry C#CC1(O)CCC2C3CCc4cc(O)ccc4C3CCC21C (centres undefined) ; cell viability = 107

# cell viability (compound: CC(OC1OCCN(Cc2nc(=O)[nH][nH]2)C1c1ccc(F)cc1)c1cc(C(F)(F)F)cc(C(F)(F)F)c1 (centres undefined) [Aprepitant] ) is 100

Value of measured cell viability for the entry Cc1nc(C(=O)NCC(=O)O)c(O)c2ccc(Oc3ccccc3)cc12 : 160

get_value(item= Cc1ccc(-c2ncc(Cl)cc2-c2ccc(S(C)(=O)=O)cc2)cn1 , readout=cell viability) returns 143
